Observed IC50, system 3-oxo-5-alpha-steroid 4-dehydrogenase 2 (Homo sapiens).
RECORDED METRIC: IC50 (nM)

>  <SMILES RECORD>
CN1C(=O)CC[C@]2(C)c3ccc(/C=C/c4ccc5ccccc5n4)cc3CC[C@@H]12

>  <IC50 (nM)>
550

$$$$

1. CN1C(=O)CC[C@]2(C)c3ccc(CC(=O)O)cc3CC[C@@H]12
2. CN1C(=O)CC[C@]2(C)c3ccc(CC(=O)Nc4ccccc4)cc3CC[C@@H]12
3. CN1C(=O)CC[C@]2(C)c3ccc(/C=C/c4cnc5ccccc5c4)cc3CC[C@@H]12
Q) With regard to IC50, arrange the entries in ascending order, please. Sort and list the labels as requested.
A) 3, 2, 1

====

Target: 3-oxo-5-alpha-steroid 4-dehydrogenase 1 (Homo sapiens, UniProt P18405)
Sequence (P18405 whole entry): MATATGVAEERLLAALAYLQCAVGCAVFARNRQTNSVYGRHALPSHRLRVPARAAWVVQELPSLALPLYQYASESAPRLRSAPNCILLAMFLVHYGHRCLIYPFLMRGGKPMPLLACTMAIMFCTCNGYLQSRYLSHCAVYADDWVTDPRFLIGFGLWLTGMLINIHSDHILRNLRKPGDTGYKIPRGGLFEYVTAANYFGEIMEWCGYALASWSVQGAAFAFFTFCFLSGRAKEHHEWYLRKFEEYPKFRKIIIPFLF
Assay: Inhibitory activity against Steroid 5-alpha-reductase type I enzyme based on the conversion of [3H]-T to [3H]DHT in nuclear membrane preparations from human scalp
Format: cell membranes
pIC50: −log10 of the molar value.
RECORDED METRIC: pIC50

>  <SMILES RECORD>
CN1C(=O)CC[C@]2(C)c3ccc(/C=C/c4ccccc4)cc3CC[C@@H]12

>  <ASSAY SYSTEM>
3-oxo-5-alpha-steroid 4-dehydrogenase 1 (Homo sapiens, UniProt P18405)

>  <pIC50>
7.64

$$$$

a. CN1C(=O)CC[C@]2(C)c3ccc(/C=C\c4ccccc4)cc3CC[C@@H]12
b. CN1C(=O)CC[C@]2(C)c3ccc(C#Cc4ccccc4)cc3CC[C@@H]12
Q) // compare: a vs b , metric pIC50, want the smaller Answer = label.
A) b

====

Target: UniProt:P18405
Assay: Inhibitory activity against Steroid 5-alpha-reductase type 1 enzyme based on the conversion of [3H]T to [3H]-DHT in nuclear membrane preparations from human scalp
Type: cell membranes
pIC50: −log10 of the molar value.
RECORDED METRIC: pIC50

>  <SMILES RECORD>
CN1C(=O)CC[C@]2(C)c3ccc(-c4ccco4)cc3CC[C@@H]12

>  <pIC50>
7.23

$$$$

1. CN1C(=O)CC[C@]2(C)c3ccc(/C=C/c4cncc5ccccc45)cc3CC[C@@H]12
2. CN1C(=O)CC[C@]2(C)c3ccc(/C=C/c4ccc5ccccc5n4)cc3CC[C@@H]12
3. CN1C(=O)CC[C@]2(C)c3ccc(/C=C/c4cnc5ccccc5c4)cc3CC[C@@H]12
Q) # rank_down: sort by pIC50, max first Lab note: final answer is the ordered label list.
A) 3, 2, 1
(3: 8.47, 2: 7.49, 1: 7.20)
